# IC50 annotations
Molecular target: MCR-1 (Homo sapiens, UniProt Q01726)
Construct: expressed in transfected cells; host or cells: HEK 293
Sequence (Q01726 whole entry): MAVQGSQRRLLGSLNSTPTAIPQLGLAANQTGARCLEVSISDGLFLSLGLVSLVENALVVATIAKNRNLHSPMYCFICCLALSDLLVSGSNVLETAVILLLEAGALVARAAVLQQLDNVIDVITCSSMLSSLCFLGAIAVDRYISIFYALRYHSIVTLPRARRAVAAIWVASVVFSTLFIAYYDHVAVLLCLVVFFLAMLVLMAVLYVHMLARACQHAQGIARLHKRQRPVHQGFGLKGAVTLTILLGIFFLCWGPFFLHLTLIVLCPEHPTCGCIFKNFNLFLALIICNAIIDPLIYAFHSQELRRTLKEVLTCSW
Experiment: Melanocortin receptor binding assay, competition with 125I-HP 467, HEK 293 cells expressing hMCR-1
Conditions: inhibition of binding of 125I-HP 467, HEK 293 cells expressing MCR-1; TRG 2414 library; read-out: MC-1 IC50
Express your answer in µM, writing the number without its unit.

>  <Molecule>
CCOc1ccccc1CNCC1c2ccccc2CN(CCCCC(CN)NCC(C)c2ccc(CC(C)C)cc2)C1c1cccc(Oc2ccccc2)c1 (centres unmarked) [TRG 2414-88]

>  <Readout Units>
µM

>  <IC50>
36.5

$$$$
>  <Molecule>
NCC(N)CCCCN1Cc2ccccc2C(CNC2CCCCC2)C1c1ccc(Oc2ccccc2)cc1 (centres unmarked) [TRG 2414-157]

>  <Readout Units>
µM

>  <IC50>
1.11

$$$$
>  <Molecule>
COc1ccc(CCNCC2c3ccccc3CN(CCCCC(CN)NCCc3ccccc3)C2c2cccc(Oc3ccccc3)c2)cc1 (centres unmarked) [TRG 2414-106]

>  <Readout Units>
µM

>  <IC50>
12.9

$$$$
>  <Molecule>
COc1ccc(CCNCC2c3ccccc3CN(CCCC[C@H](N)CN)C2c2ccc(Cl)cc2Cl)cc1 (some centres unmarked) [TRG 2414-25]

>  <Readout Units>
µM

>  <IC50>
1.39

$$$$

With those in mind, consider the next molecule.
Give the reported IC50 for this molecule. COc1cccc(CNCC2c3ccccc3CN(CCCCC(CN)NCC(C)c3ccc(CC(C)C)cc3)C2c2ccc(Oc3ccccc3)cc2)c1 (centres unmarked) [TRG 2414-140]
37
